Origin of values: PubChem BioAssay (NCI)

experiment: NCI Yeast Anticancer Drug Screen. Data for the rad14 strain (AID 159);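 further: 0% = growth of vehicle-treated control cultures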; conditions: S. cerevisiae rad14 strain growth inhibition; at 11.0 µM; hits give high values
The panel holds about 79,000 compounds, 15% with a hit somewhere; the sample as a whole holds those more often.
Reported growth inhibition values follow for various compounds
quantity-measured: growth inhibition (%)

1) O=C1C(Br)=C(c2ccccc2)O/C1=C/C(=O)c1ccc(Br)cc1
13
2) Cc1nc(-c2cc3cc([N+](=O)[O-])ccc3oc2=O)cs1
13
3) C[Si](C)(C)/C=C/CCNC(C#N)c1ccccc1 (stereo unspecified)
37
4) CN(CCN(C)Cc1ccccc1)Cc1ccccc1
18
5) COc1cc(CSc2ccc(O)cc2)cc(O)c1O
5
6) CSc1nc(C)c(CCOC(C)=O)c(N=P(c2ccccc2)(c2ccccc2)c2ccccc2)n1
-4
7) Cc1nc(Nc2ccccc2[N+](=O)[O-])sc1C(=O)CC(=O)C(=O)Nc1c(C(C)C)cccc1C(C)C
1
8) COc1cc(C2SCC(=O)N2c2ccc(-c3ccc(-n4c(-c5ccccc5)nc5ccccc5c4=O)cc3)cc2)ccc1O (stereo unspecified)
2
9) O=C(NNc1ccccc1)c1ccc(Cl)c(Cl)c1
3
10) CCc1c(Cl)c(C)cc(O)c1Cl
-19
11) COc1cc2cc3c4cc(OC)c(OC)cc4cc[n+]3c(C)c2cc1OC
-31
12) C=C1CC(CCCl)(c2ccccc2)OC1=O (stereo unspecified)
60
13) Oc1ccc2ccccc2c1CCc1c(O)ccc2ccccc12
28
14) CC12C(=O)OC(=O)C(c3ccccc31)c1ccccc12
0
15) O=C1CSC(c2cccc(Cl)c2)N1c1ccc(-c2ccc(-n3c(-c4ccccc4)nc4ccccc4c3=O)cc2)cc1 (stereo unspecified)
15
16) CC[n+]1oc(C(=O)c2ccc(Cl)cc2)c(-c2ccccc2)c1-c1ccccc1.[Cl][Fe]([Cl])([Cl])[Cl]
12
17) Cc1ccc2c(c1)C1(SC(C)C(=O)N1c1ccc(Cl)cc1)C(=O)N2 (stereo unspecified)
12
18) CC(=O)Nc1ccc(/C=C/[N+](=O)[O-])cc1
18
19) S=c1sc2c(s1)SCCS2
-2
20) O=C(NNc1ccccc1)C(O)C(O)C(O)C(O)C(O)CO (stereo unspecified)
8
21) COc1cccc(/C=N/C(/N=C/c2cccc(OC)c2O)c2cccc(OC)c2O)c1O
19
22) COC1=C(N)C(=O)c2nc(-c3nc(C(=O)O)c(C)c(-c4ccc(OC)c(OC)c4O)c3N)ccc2C1=O
98
23) CCc1cc(O)c(Cl)c(C)c1Cl
-8
24) O=[N+]([O-])c1cc(F)c(F)cc1Sc1cc(F)c(F)cc1[N+](=O)[O-]
83
25) Cc1cc2cc3cc(C)c(N)cc3nc2cc1N
5
26) CC(C)(CCCCC(C)(C)[N+](C)(C)C)[N+](C)(C)C
-4
27) CCCCCCCCCCCC1=NCCO1
15
28) Cc1cc(N(CCOS(C)(=O)=O)CCOS(C)(=O)=O)ccc1C=Nc1ccc(-c2csc(-c3ccccc3)n2)c(Cl)c1
91
29) Cc1cc(C(C)(C)C)c(OCCCN2CCOCC2)c(C(C)(C)C)c1
-5
30) O=[N+]([O-])c1cccc2nc3ccccc3c(NCCC[N+]3([O-])CCCCC3)c12
86
31) O=[n+]1c2ccccc2n([O-])c2cc(Br)ccc21
95
32) CC(C)OC(=O)c1ccc(CCc2cc(O)c(Br)cc2O)cc1
75
33) O=Cc1ccc2c(c1)C(=O)c1ccccc1C2=O
10
34) O=C(O)c1ccccc1/C=N/N=C1c2ccccc2-c2ccccc21
0
35) Cc1ccc(N=Nc2ccc(O)c(=O)cc2)cc1
47
36) O=C(NCCCl)Sc1ccc(Cl)cc1
2
37) NC(=O)c1c([N+](=O)[O-])cc(C(F)(F)F)cc1[N+](=O)[O-]
0
38) O/N=C\c1c(O)ccc2ccccc12
7
39) CC(/C=C/c1ccccc1)=N\NC(N)=S
-17
40) COC1CCC(O)C(/C=C/[N+](=O)[O-])C1 (stereo unspecified)
99
41) O=C(COC(=O)c1ccccc1)c1ccc(Br)cc1
30
42) CNC(=O)OCc1c(COC(=O)NC)c(-c2ccc(Cl)c(Cl)c2)n2c1SCC2
4
43) N#CC(=Nc1ccccc1F)Nc1ccccc1F
-4
44) C=C1CCC(O)C/C1=C/C=C1\CCCC2(C)C1CCC2C(C)CCCC(C)C (stereo unspecified)
-23
45) CCn1c(O)c(C=Nc2ccccc2)s/c1=N/Nc1nc(-c2ccccc2)cs1
9
46) Cc1ccc2c3ccc4c(c3n(C)c2c1)C(=O)C=CC4=O
-9
